Attribution: the PolyMetriX glass transition set

MEASURED ENDPOINT: glass transition temperature (°C)

{"COMPOUND": "*Oc1ccc(NC(=O)c2ccc(C(c3ccc(C(=O)Nc4ccc(Oc5ccc(C6(c7ccc(*)cc7)C7CC8CC(C7)CC6C8)cc5)cc4)cc3)(C(F)(F)F)C(F)(F)F)cc2)cc1 (repeat unit)", "glass transition temperature [°C]": 241.00}
{"COMPOUND": "*Oc1cccc(OC(=O)CCC(*)=O)c1 (repeat unit)", "glass transition temperature [°C]": 38.20}
{"COMPOUND": "*c1cccc(C(F)(F)C(F)(F)C(F)(F)c2cccc(N3C(=O)c4ccc(Oc5ccc6c(c5)C(=O)N(*)C6=O)cc4C3=O)c2)c1 (repeat unit)", "glass transition temperature [°C]": 183.00}
{"COMPOUND": "*CC(*)c1ccc(C(C)=O)cc1 (repeat unit)", "glass transition temperature [°C]": 115.50}

[a] */C=C/c1c(OC(=O)c2ccc(C(=O)Oc3cccc4ccc(*)nc34)cc2)ccc2ccccc12 (repeat unit)
[b] *c1ccc(Oc2c(C)cc(Cc3cc(C)c(Oc4ccc(-n5c(=O)c6cc7c(=O)n(*)c(=O)c7cc6c5=O)cc4)c(C)c3)cc2C)cc1 (repeat unit)
[c] *CCCCCCCC(=O)OCCOC(=O)CCCCCCCC1OCC2(COC(*)OC2)CO1 (repeat unit)
Could you please order the items by glass transition temperature, going from the lowest number to the highest? Submit the labels in the order that the ranking request calls for.
c, a, b
(c: 0.00 °C, a: 175.00 °C, b: 299.50 °C)
